# STUDY SYSTEM: T1, IL-11 (Cat. 12225-HNCE, Sino Biological Inc.) (UniProt P20809 22-199, limits assumed)
# T1 sequence (looked up): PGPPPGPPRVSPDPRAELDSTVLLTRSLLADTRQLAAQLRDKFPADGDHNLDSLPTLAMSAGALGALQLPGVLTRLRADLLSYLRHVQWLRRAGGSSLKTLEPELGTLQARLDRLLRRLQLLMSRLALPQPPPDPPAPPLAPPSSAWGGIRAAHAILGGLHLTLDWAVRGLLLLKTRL
# ASSAY NOTES: cell-based or functional assay
Flag rule - Blocking activity (IC50), STAT3-luc reporter less than 2 µg/mL flags rule met; the remaining entries get rule not met.

Worked examples, 2 binders total:
| BINDER | GROUP |
| --- | --- |
| hz8C8-VHm1 + hz8C8-VLm7-m3 (antibody, human IgG1, kappa, V domains shown, human IgG1 constant regions) VH: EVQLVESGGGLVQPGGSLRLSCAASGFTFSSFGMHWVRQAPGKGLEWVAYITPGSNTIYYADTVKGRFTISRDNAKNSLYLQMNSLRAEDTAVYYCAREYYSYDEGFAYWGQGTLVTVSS VL: EIVLTQSPATLSLSPGERATLSCSVSDLIPSQYLHWYQQKPGQAPRLLIYGASNLASGIPARFSGSGSGTDFTLTISSLEPEDFAVYYCQQGVDVPFTFGQGTKLEIKR | rule met |
| hz18A10-VHm4 + hz18A10-VLm18 (antibody, V domains shown, Constant regions not restated for this antibody) VH: EVQLVQSGAEVKKPGASVKVSCKASGYTFTTYNIDWVRQAPGQGLEWMGTIYPGNGDTSYNQKFKGRVTMTRDTSTSTVYMELSSLRSEDTAVYYCARGDLYALDYWGQGTLVTVSS VL: DIQMTQSPSSLSASVGDRVTITCKASQSVYRDVAWYQQKPGKAPKLLIYRASSRYTGVPSRFSGSGSGTDFTFTISSLQPEDIATYYCQHDYSSPYTFGQGTKLEIK | rule met |

Input line: Please let me know if hz8C8-VHm1 + hz8C8-VLm6 (antibody, human IgG1, kappa, V domains shown, human IgG1 constant regions) VH: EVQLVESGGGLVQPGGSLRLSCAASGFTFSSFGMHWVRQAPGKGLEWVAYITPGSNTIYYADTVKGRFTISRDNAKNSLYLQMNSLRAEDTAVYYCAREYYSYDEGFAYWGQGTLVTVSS VL: EIVLTQSPATLSLSPGERATLSCSVSSLIPSKYLHWYQQKPGQAPRLLIYRTSNLASGIPARFSGSGSGTDFTLTISSLEPEDFAVYYCQQGVDVPFTFGQGTKLEIKR shows Blocking activity (IC50), STAT3-luc reporter below 2 µg/mL.
Output line: rule met

Input line: Please indicate whether the reported Blocking activity (IC50), STAT3-luc reporter of hz18A10-VHm1 + hz18A10-VLm7 (antibody, V domains shown, Constant regions not restated for this antibody) VH: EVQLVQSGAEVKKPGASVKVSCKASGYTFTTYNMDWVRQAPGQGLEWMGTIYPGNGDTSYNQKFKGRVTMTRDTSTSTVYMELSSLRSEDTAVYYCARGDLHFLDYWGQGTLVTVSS VL: DIQMTQSPSSLSASVGDRVTITCKASQSVFRDVAWYQQKPGKAPKLLIYSASNRYTGVPSRFSGSGSGTDFTFTISSLQPEDIATYYCQHDYSSPYTFGQGTKLEIK is strictly below 2 µg/mL.
Output line: rule not met

Input line: Would you kindly verify if Blocking activity (IC50), STAT3-luc reporter of hz18A10-VH + hz18A10-VLm12 (antibody, V domains shown, Constant regions not restated for this antibody) VH: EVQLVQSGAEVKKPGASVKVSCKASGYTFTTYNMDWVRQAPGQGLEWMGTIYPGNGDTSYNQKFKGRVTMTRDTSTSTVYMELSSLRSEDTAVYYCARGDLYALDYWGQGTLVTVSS VL: DIQMTQSPSSLSASVGDRVTITCKASQSVSNDVAWYQQKPGKAPKLLIYSASSRYTGVPSRFSGSGSGTDFTFTISSLQPEDIATYYCQHDYSSPYTFGQGTKLEIK is strictly less than 2 µg/mL?
Output line: rule not met

Every entry's value here was drawn from patent US20250197488A1.
